# Tested on: IL-1 induced T-cell Proliferation
# assay-text: Anti IL-1 Activity (Thymocyte Assay): suppression of IL-1 induced T-cell proliferation
# Assay type: cell-based, C3H/HeJ male mice
# condition-info: 10 mcg/ml, mouse thymocytes, 48 hours, read-out: Percent T-cell suppression
metric: inhibition at 10 µg/mL
Phrase the answer as number then unit, nothing more needed.

Below, 6 compounds whose answers are already recorded.
>>> print(df.to_string())
                                   compound                    target_of_assay                  metric  meas_value
0  C=CCc1cc(C(C)=O)c(OC)cc1OCCCCC#N [Example 115]  IL-1 induced T-cell Proliferation  inhibition at 10 µg/mL         96%
1  CC(=O)c1cc(CO)c(OCCCCCCC#N)cc1O [Example 36]  IL-1 induced T-cell Proliferation  inhibition at 10 µg/mL         75%
2  C=CCc1cc(C(C)=O)c(O)cc1OCCCCCCCC [Example 38]  IL-1 induced T-cell Proliferation  inhibition at 10 µg/mL         28%
3  CCc1cc(C(=O)c2ccccc2)c(O)cc1OCCCCC#N [Example 130]  IL-1 induced T-cell Proliferation  inhibition at 10 µg/mL         99%
4  CCc1cc(C(=O)c2ccccc2C(=O)O)c(O)cc1OCCCCC#N [Example 89]  IL-1 induced T-cell Proliferation  inhibition at 10 µg/mL         39%
5  CC(=O)c1cc(CC(C)O)c(OCCCCC#N)cc1O (stereo not shown) [Example 125]  IL-1 induced T-cell Proliferation  inhibition at 10 µg/mL         85%

Request: For CCc1cc(C(=O)CCCCC(=O)O)c(O)cc1OCCCCC#N [Example 90] , write its inhibition at 10 µg/mL.
Response: 47%

Request: For CCc1cc(C(C)=O)c(O)cc1OCCCCc1nnn(C)n1 [Example 123] , write its inhibition at 10 µg/mL.
Response: 90%

* * *

# target-of-assay: leukotriene B4 specific receptor on the membrane of human neutrophils (Homo sapiens, UniProt Q15722)
# Construct: incubating neutrophils (1×10^7 cells) with 0.1-0.2 nM ^3 H-LTB4; endogenous in cells; host or cells: human peripheral blood neutrophils (buffy coats of two blood donors)
# Sequence (Q15722 whole entry): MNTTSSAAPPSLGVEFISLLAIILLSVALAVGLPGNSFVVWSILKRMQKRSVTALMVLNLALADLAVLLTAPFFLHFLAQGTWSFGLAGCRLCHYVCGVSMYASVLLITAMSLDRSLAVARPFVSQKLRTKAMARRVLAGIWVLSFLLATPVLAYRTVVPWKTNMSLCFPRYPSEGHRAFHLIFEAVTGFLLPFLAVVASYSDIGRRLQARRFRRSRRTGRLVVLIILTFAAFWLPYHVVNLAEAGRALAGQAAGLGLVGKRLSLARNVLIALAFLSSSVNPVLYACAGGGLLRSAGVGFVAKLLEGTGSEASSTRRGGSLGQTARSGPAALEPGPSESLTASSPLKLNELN
# assay-text: Inhibition of Binding of ^3 H-LTB4 to Peripheral Human Neutrophils
# condition-info: drug concentration 10^-5 M; 4° C., 10 minutes; read-out: LTB4 Binding Inhibition
metric: inhibition at 10 µM (%)
Unit % implied. Number only.

Below, 6 compounds whose answers are already recorded.
>>> df
                                   compound               metric  value_unit  meas_value
0         CC(=O)c1cc(C(C)=O)c(OCCCCC#N)cc1O  inhibition at 10 µM           %           8
1          C=CCc1cc(C(=O)CC)c(O)cc1OCCCCC#N  inhibition at 10 µM           %          76
2           CCCCc1cc(C(C)=O)c(O)cc1OCCCCC#N  inhibition at 10 µM           %          37
3    CCc1cc(C(C)=O)c(O)cc1OCCCCCCc1nnn[nH]1  inhibition at 10 µM           %          94
4  CCOC(=O)Cn1nnnc1CCCCOc1cc(O)c(C(C)=O)cc1CC  inhibition at 10 µM           %          34
5  C=CCc1cc(C(C)=O)c(O)cc1OCCCCCCC#N [Example 24, 7-(4-Acetyl-5-hydroxy-2-allylphenoxy)-]  inhibition at 10 µM           %          94

Request: For C=CCc1cc(C(C)=O)c(O)cc1OCCCCO , write its inhibition at 10 µM.
Response: 47

Request: For C=CCc1cc(C(C)=O)c(O)cc1OCCCCc1nn[nH]n1 , write its inhibition at 10 µM.
Response: 41

Request: For CCCc1cc(C(C)=O)c(O)cc1OCCCCC(=O)O , write its inhibition at 10 µM.
Response: 0

Request: For CCc1cc(C(C)=O)c(O)cc1OCCCC(C)(C)c1nnn[nH]1 , write its inhibition at 10 µM.
Response: 100

Request: For CC(=O)c1cc(CO)c(OCCCCCCC#N)cc1O , write its inhibition at 10 µM.
Response: 40

Request: For C=CCc1cc(C(C)=O)c(O)cc1OCCCCCC(=O)NO , write its inhibition at 10 µM.
Response: 84

Request: For C=CCc1cc(C(C)=O)c(O)cc1OCCCCCCCCCCC#N , write its inhibition at 10 µM.
Response: 50

Request: For C=CCc1cc(C(C)=O)c(O)cc1OCCCC#N , write its inhibition at 10 µM.
Response: 46

Request: For CCc1cc(CC)c(OCCCCCC(C)(C)c2nnn[nH]2)cc1O , write its inhibition at 10 µM.
Response: 105

Request: For C=CCc1cc(C(C)=O)c(O)cc1OCCCCCCC , write its inhibition at 10 µM.
Response: 31

Request: For CCc1cc(C(=O)c2ccc(C(=O)O)cc2)c(O)cc1OCCCCC#N , write its inhibition at 10 µM.
Response: 26

Request: For C=CCCCCOc1cc(O)c(C(C)=O)cc1CC=C , write its inhibition at 10 µM.
Response: 72

Request: For C=CCc1cc(C(C)=O)c(O)cc1OCc1ccc(CC#N)cc1 , write its inhibition at 10 µM.
Response: 30

* * *

// reported inhibition at 1 µg/mL per item
# Test system: IL-1 induced T-cell Proliferation
# assay-text: Anti IL-1 Activity (Thymocyte Assay): suppression of IL-1 induced T-cell proliferation
# Assay type: cell-based, C3H/HeJ male mice
# condition-info: 1 mcg/ml, mouse thymocytes, 48 hours, read-out: Percent T-cell suppression
Where a name gives a salt, the structure may show the parent alone.
Unit % implied. Number only.

Below, 10 molecules whose answers are already recorded.
In [3]: df
Out[3]:
                                   molecule                 metric  value_unit  meas_value
0  CCCc1cc(C(C)=O)c(Cl)cc1OCCCCC#N [Example 15]  inhibition at 1 µg/mL           %          33
1  C=CCc1cc(C(C)=O)c(O)cc1OCCCCCCCC [Example 38]  inhibition at 1 µg/mL           %          -8
2  CCc1cc(C(C)=O)c(O)cc1OCCCCCCC#N [Example 20]  inhibition at 1 µg/mL           %          39
3  CCc1cc(C(C)=O)c(O)cc1OCCCCCC(C)(C)C#N [Example 68]  inhibition at 1 µg/mL           %          13
4  CC(=O)c1cc(CO)c(OCCCCCCC#N)cc1O [Example 36]  inhibition at 1 µg/mL           %          15
5  C=CCc1cc(C(C)=O)c(O)cc1OCCCCN(C)C [Example 76, hydrochloride]  inhibition at 1 µg/mL           %          39
6  CCc1cc(C(=O)CCCCC(=O)O)c(O)cc1OCCCCC#N [Example 90]  inhibition at 1 µg/mL           %           3
7  CCc1cc(C(C)=O)c(O)cc1OCCCCCCS(C)(=O)=O [Example 83]  inhibition at 1 µg/mL           %          29
8  CCc1cc(C(=O)c2ccccc2C(=O)O)c(O)cc1OCCCCC#N [Example 89]  inhibition at 1 µg/mL           %           9
9  CCCCc1cc(C(C)=O)c(O)cc1OCCCCC#N [Example 30]  inhibition at 1 µg/mL           %          32

Request: Print IL-1 induced T-cell Proliferation inhibition at 1 µg/mL for CCc1cc(C(C)=O)c(O)cc1OCCCCCC[S+](C)[O-] (stereo not drawn) [Example 82] .
Response: 21

* * *

# target-of-assay: leukotriene B4 specific receptor on the membrane of human neutrophils (Homo sapiens)
# Construct: incubating neutrophils (1×10^7 cells) with 0.1-0.2 nM ^3 H-LTB4; endogenous in cells; host or cells: human peripheral blood neutrophils (buffy coats of two blood donors)
# assay-text: Inhibition of Binding of ^3 H-LTB4 to Peripheral Human Neutrophils
# condition-info: drug concentration 10^-6 M; 4° C., 10 minutes
metric: inhibition at 1 µM
Phrase the answer as number then unit, nothing more needed.

Below, 6 compounds whose answers are already recorded.
>>> print(df.to_string())
                                   compound                           target_of_assay  meas_value
0  CCc1cc(C(=O)c2ccc(C(=O)O)cc2)c(O)cc1OCCCCC#N  leukotriene B4 specific receptor on the membrane of human neutrophils (Homo sapiens)         20%
1          COCc1cc(C(C)=O)c(O)cc1OCCCCCCC#N  leukotriene B4 specific receptor on the membrane of human neutrophils (Homo sapiens)          7%
2              CC(=O)c1cc(C)c(OCCCCC#N)cc1O  leukotriene B4 specific receptor on the membrane of human neutrophils (Homo sapiens)         32%
3       CCc1cc(C(C)=O)c(O)cc1OCc1cccc(SC)c1  leukotriene B4 specific receptor on the membrane of human neutrophils (Homo sapiens)         23%
4          CSCc1cc(C(C)=O)c(O)cc1OCCCCCCC#N  leukotriene B4 specific receptor on the membrane of human neutrophils (Homo sapiens)         64%
5  C=CCc1cc(C(C)=O)c(O)cc1OCCCCCC[S+](C)[O-] (stereo not drawn)  leukotriene B4 specific receptor on the membrane of human neutrophils (Homo sapiens)         51%

Request: For C=CCc1cc(C(C)=O)c(O)cc1OCCCCCC(C)(C)O , write its inhibition at 1 µM.
Response: 59%

Request: For C#CCCCCOc1cc(O)c(C(C)=O)cc1CC=C , write its inhibition at 1 µM.
Response: 29%

Request: For CCOC(=O)c1ccc(COc2cc(O)c(C(C)=O)cc2CC)cc1O , write its inhibition at 1 µM.
Response: 3%
